Parameter AMBEL herbicidal rating: see the listing below.
System: AMBROSIA ARTEMISIIFOLIA, L.
Assay: Preemergence herbicidal evaluation, AMBEL (Ragweed, Common)
Format: in vivo
Conditions: Rate 0.125 kg/ha, rated four to five weeks after treatment
Experimental endpoint: AMBEL herbicidal rating

Compound	Numeric result
COC(=O)Cn1c(=O)n(C)c(=O)n(-c2cc(Oc3c(Cl)cccc3Cl)ccc2[N+](=O)[O-])c1=O	0.0
COC(=O)Cn1c(=O)n(C)c(=O)n(-c2cc(Oc3ccc([S+](C)[O-])cc3Cl)ccc2[N+](=O)[O-])c1=O (centres unmarked)	0.0
Cn1c(=O)n(CC(=O)OC(C)(C)C)c(=O)n(-c2cc(Oc3c(F)cc(C(F)(F)F)cc3Cl)ccc2F)c1=O	0.0
COC(=O)Cn1c(=O)n(C)c(=O)n(-c2cc(Oc3ccc(SC)cc3Cl)ccc2[N+](=O)[O-])c1=O	0.0
Cn1c(=O)n(CC(N)=O)c(=O)n(-c2cccc(Oc3ccc(C(F)(F)F)cc3Cl)c2)c1=O	0.0
Cn1c(=O)n(CC(=O)OC(C)(C)C)c(=O)n(-c2cc(Oc3ccc(C(F)(F)F)cc3Cl)ccc2Cl)c1=O	0.0
CC(C)OC(=O)Cn1c(=O)n(C)c(=O)n(-c2cc(Oc3ncc(C(F)(F)F)cc3Cl)ccc2Br)c1=O	0.0
COC(=O)Cn1c(=O)n(C)c(=O)n(-c2cc(Oc3ncc(C(F)(F)F)cc3Cl)ccc2Br)c1=O	0.0
